System: Fusarium oxysporum
measurement protocol: Antifungal activity against Fusarium oxysporum at 50 ug/ml by poison plate technique
Assay type: functional
Threshold check on inhibition at 50 µg/mL: at or above 10% gives YES, strictly below gives NO.

compound | assayed target | class
COc1ccccc1C[S+]([O-])c1nnc(-c2cc(OC)c(OC)c(OC)c2)o1 (stereo not given) | Fusarium oxysporum | YES
COc1cc(-c2nnc([S+]([O-])Cc3ccccc3)o2)cc(OC)c1OC (stereo not given) | Fusarium oxysporum | YES
COc1cc(-c2nnc([S+]([O-])Cc3cccc(F)c3)s2)cc(OC)c1OC (stereo not given) | Fusarium oxysporum | YES

Qu. Does CCOCC[S+]([O-])c1nnc(-c2cc(OC)c(OC)c(OC)c2)s1 (stereo not given) have a reported inhibition at 50 µg/mL of at least 10%?
Ans. NO

Qu. Given the entry COc1cc(-c2nnc([S+]([O-])Cc3ccc(Cl)nc3)o2)cc(OC)c1OC (stereo not given) , answer whether its inhibition at 50 µg/mL meets or surpasses 10%.
Ans. YES

====

Reported inhibition at 50 µg/mL values are given for each entry in this list.
Tested on: Cytospora
measurement protocol: Antifungal activity against Cytospora mandshurica at 50 ug/ml by poison plate technique
Format: functional
Lab book: enter the figure in %, no units written.

Past entries and their recorded results:
compound | inhibition at 50 µg/mL [%]
COc1cc(-c2nnc([S+]([O-])Cc3ccccc3F)o2)cc(OC)c1OC (stereo unspecified) | 2.82
COc1cc(-c2nnc([S+]([O-])Cc3cccc(F)c3)o2)cc(OC)c1OC (stereo unspecified) | -0.31
COc1cc(-c2nnc([S+]([O-])Cc3ccc(Cl)nc3)o2)cc(OC)c1OC (stereo unspecified) | 11.9
CCOCC[S+]([O-])c1nnc(-c2cc(OC)c(OC)c(OC)c2)s1 (stereo unspecified) | 16.1
COc1cc(-c2nnc([S+]([O-])Cc3ccc(F)cc3)s2)cc(OC)c1OC (stereo unspecified) | 3.83

Attention now turns to another entry.
Qu. Respond only with inhibition at 50 µg/mL recorded for COc1ccccc1C[S+]([O-])c1nnc(-c2cc(OC)c(OC)c(OC)c2)o1 (stereo unspecified)
Ans. 18.2

The reported numbers originate from ChEMBL document CHEMBL1144737.
